# systemTested: T1, human CCR8 (human, UniProt P51685 1-355)
# T1 construct: whole, on cells; construct used for the overexpressing cell lines is not described; also called hCCR8
# T1 sequence (P51685 whole entry): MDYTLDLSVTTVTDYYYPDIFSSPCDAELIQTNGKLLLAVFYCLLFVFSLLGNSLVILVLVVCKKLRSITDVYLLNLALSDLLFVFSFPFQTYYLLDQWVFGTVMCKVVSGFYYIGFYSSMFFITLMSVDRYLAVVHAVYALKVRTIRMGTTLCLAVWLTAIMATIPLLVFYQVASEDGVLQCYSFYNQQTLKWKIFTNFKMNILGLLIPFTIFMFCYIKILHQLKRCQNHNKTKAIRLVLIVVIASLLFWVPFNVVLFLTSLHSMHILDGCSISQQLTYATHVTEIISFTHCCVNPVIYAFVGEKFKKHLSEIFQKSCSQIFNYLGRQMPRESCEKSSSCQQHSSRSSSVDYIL
# experimentalDetails: FACS, CHO-K1-hCCR8 cells
pEC50: −log10 of the molar value.
quantity: pEC50

1) PR004521 (antibody, human IgG1, kappa, V domains shown, humanized variant of PR004128, IgG1 with DE mutation) VH: EVQLVESGGGLVQPGGSLKLSCAASGFTFNTYAMNWVRQASGKGLEWVGRIRSKSNNYATYYADSVKDRFTISRDDSKSTLYLQMNSLKTEDTAVYYCVRGKENGNYYAMDFWGQGTTVTVSS VL: DIVMTQSPLSLPVTPGEPASISCRSSKSLLHSNGKIYLYWFLQKPGQSPQLLIYRMSNLASGVPDRFSGSGSGTDFTLKISRVEAEDVGVYYCMQHLEYPLTFGQGTKLEIKR : 9.43
2) PR004527 (antibody, human IgG1, kappa, V domains shown, humanized variant of PR004128, IgG1 with DE mutation) VH: EVQLVESGGGLVQPGGSLKLSCAASGFTFNTYAMNWVRQASGKGLEWVGRIRSKSNNYATYYADSVKDRFTISRDDSKSTLYLQMNSLKTEDTAVYYCVRGKENGNYYAMDFWGQGTTVTVSS VL: DIVMTQSPLSLPVTLGQPASISCRSSKSLLHSNGKIYLYWFQQRPGQSPRLLIYRMSNLASGVPDRFSGSGSGTDFTLKISRVEAEDVGVYYCMQHLEYPLTFGQGTKLEIKR : 9.14
3) PR004522 (antibody, human IgG1, kappa, V domains shown, humanized variant of PR004128, IgG1 with DE mutation) VH: EVQLVESGGGLVKPGGSLRLSCAASGFTFNTYAMNWVRQAPGKGLEWVGRIRSKSNNYATYYADSVKDRFTISRDDSKSTLYLQMNSLKTEDTAVYYCVRGKENGNYYAMDFWGQGTTVTVSS VL: DIVMTQSPLSLPVTPGEPASISCRSSKSLLHSNGNTYLYWFLQKPGQSPQLLIYRMSNLASGVPDRFSGSGSGTDFTLKISRVEAEDVGVYYCMQHLEYPLTFGQGTKLEIKR : 8.97
4) PR004526 (antibody, human IgG1, kappa, V domains shown, humanized variant of PR004128, IgG1 with DE mutation) VH: EVQLVESGGGLVQPGGSLRLSCAASGFTFNTYAMNWVRQAPGKGLEWVSRIRSKSNNYATYYADSVKDRFTISRDDSKSTLYLQMNSLRAEDTAVYYCVRGKENGNYYAMDFWGQGTTVTVSS VL: DIVMTQSPLSLPVTLGQPASISCRSSKSLLHSNGKIYLYWFQQRPGQSPRLLIYRMSNLASGVPDRFSGSGSGTDFTLKISRVEAEDVGVYYCMQHLEYPLTFGQGTKLEIKR : 8.99
